- Assay system: human COX-2 (Homo sapiens, UniProt P35354)
- Construct: purchased Cayman Chemicals 560131
- Sequence (P35354 18-604): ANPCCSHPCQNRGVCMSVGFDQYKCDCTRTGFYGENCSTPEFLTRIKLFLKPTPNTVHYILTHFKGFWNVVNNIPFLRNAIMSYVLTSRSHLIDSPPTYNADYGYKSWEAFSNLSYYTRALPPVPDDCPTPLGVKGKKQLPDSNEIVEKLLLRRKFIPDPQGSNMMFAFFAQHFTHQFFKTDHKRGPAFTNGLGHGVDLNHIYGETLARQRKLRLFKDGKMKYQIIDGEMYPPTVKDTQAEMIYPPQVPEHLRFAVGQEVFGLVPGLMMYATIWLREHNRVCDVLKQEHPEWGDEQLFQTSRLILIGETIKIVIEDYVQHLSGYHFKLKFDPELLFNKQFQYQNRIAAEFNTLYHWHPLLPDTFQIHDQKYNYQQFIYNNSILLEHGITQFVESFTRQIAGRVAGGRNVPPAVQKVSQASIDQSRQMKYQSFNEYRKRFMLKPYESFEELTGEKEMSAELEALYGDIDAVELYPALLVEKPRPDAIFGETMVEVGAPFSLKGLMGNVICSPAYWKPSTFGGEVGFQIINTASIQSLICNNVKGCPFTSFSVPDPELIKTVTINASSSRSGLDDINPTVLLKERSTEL
- Test name: In vitro COX-2 inhibition assay (Cayman kit 560131, ELISA)
- Type: biochemical
- Condition summary: selectivity index normalized to celecoxib = 100%
Observation type: %SI
# include the unit after the value

Example entries and their recorded answers appear below.
                                   molecule  reading
0  COC(=O)C=C1SC(=NN=Cc2ccc(-n3nc(-c4ccccc4)ccc3=O)cc2)NC1=O   71.69%
1  CC1SC(NN=Cc2ccc(-n3nc(-c4ccccc4)ccc3=O)cc2)=NC1=O (centres unmarked)   68.40%
2  COC(=O)C=C1SC(=NN=Cc2ccc(-n3nc(-c4ccccc4)ccc3=O)cc2)N(c2ccccc2)C1=O   61.23%
3  CN(C)C=C1SC(NN=Cc2ccc(-n3nc(-c4ccccc4)ccc3=O)cc2)=NC1=O   59.78%
4  O=C1N=C(N/N=C/c2ccc(-n3nc(-c4ccccc4)ccc3=O)cc2)S/C1=C\c1ccc(Cl)cc1 [Compound 16a]   68.96%

Please indicate recorded %SI of `O=C1CSC(NN=Cc2ccc(-n3nc(-c4ccccc4)ccc3=O)cc2)=N1` measured with human COX-2 (Homo sapiens, UniProt P35354).
57.56%

# lookup: human COX-2 (Homo sapiens, UniProt P35354) %SI, key = `NN=Cc1ccc(-n2nc(-c3ccccc3)ccc2=O)cc1`
49.88%

Send back human COX-2 (Homo sapiens, UniProt P35354) %SI of `CCOC(=O)c1sc(N/N=C/c2ccc(-n3nc(-c4ccccc4)ccc3=O)cc2)nc1C` only.
57.45%
